Data provenance is PubChem BioAssay AID588575.

Biological target: Bcl-2-like protein 10 (Homo sapiens)
Test: Bcl-B inhibitors displacing Bim peptide, SAR follow-up, biochemical, fluorescence polarization, GST-Bcl-B, FITC-Bim (AID 588575)
Calls of active or inactive are those of the source.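 How the source made its calls: active means IC50 at or below 20 µM; inactive means the rest.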
Write down one outcome, taken from yes (active), no (inactive)

O=c1c2ccccc2nc2n1C1(CCCCC1)Cc1ccccc1-2: no
COc1ccc2c(c1)-c1c(c(=O)n(Cc3ccc(Cl)cc3)c3nncn13)C(C)(C)C2: no
O=c1c2c(n3cnnc3n1C1CCCCC1)-c1ccccc1CC21CCCCC1: no
COc1ccc2c(c1)-c1c(c(=O)n(Cc3ccc(F)cc3)c3nnnn13)C(C)(C)C2: no

Any idea what this test logged for `O=c1c2c(nc3[nH]ncn13)-c1ccccc1CC21CCCCC1` ? no

Any idea what this test logged for `O=c1c2c(n3nnnc3n1Cc1ccccc1)-c1cc(F)ccc1CC21CCCC1` ? no

Any idea what this test logged for `COc1ccc2c(c1)-c1c(c(=O)n(Cc3ccccc3)c3nncn13)C(C)(C)C2` ? no

Any idea what this test logged for `O=c1c2c(n3nnnc3n1Cc1ccccc1)-c1ccccc1CC21CCCC1` ? yes

Any idea what this test logged for O=C1CC(c2ccccc2F)c2c(n3ncnc3[nH]c2=O)N1 (stereo not given) ? no

Any idea what this test logged for `COc1ccc2c(c1)-c1c(c(=O)n(Cc3ccccc3)c3nncn13)C1(CCCC1)C2` ? no

====

Molecular target: Bcl-2-like protein 10 (Homo sapiens)
Assay: Bcl-B inhibitors displacing Bim peptide, SAR follow-up, biochemical, fluorescence polarization, GST-Bcl-B, FITC-Bim (AID 588575)
The source made the active and inactive calls.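 The calls were made as follows: active = IC50 at or below 20 µM; inactive = the rest.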
Write down one outcome, taken from YES (active), NO (inactive)

Examples with answers:
Cc1ccc2c(c1)-c1c(c(=O)n(Cc3ccccc3)c3nncn13)C(C)(C)C2: NO
O=c1c2c(-c3ccccc3)n3ncnc3nc2ccn1-n1cnnc1: NO
O=c1c2c(n3cnnc3n1Cc1ccccc1)-c1ccccc1CC21CCCC1: YES
O=c1c2c(n3nnnc3n1Cc1ccccc1)-c1cc(F)ccc1CC21CCCCC1: YES

Any idea what this test logged for `Cn1c(NCCO)nc2c(c1=O)C1(CCCCC1)Cc1ccccc1-2` ? NO

====

Biological target: Bcl-2-like protein 10 (Homo sapiens) (UniProt Q9HD36)
Sequence (Q9HD36 whole entry, looked up): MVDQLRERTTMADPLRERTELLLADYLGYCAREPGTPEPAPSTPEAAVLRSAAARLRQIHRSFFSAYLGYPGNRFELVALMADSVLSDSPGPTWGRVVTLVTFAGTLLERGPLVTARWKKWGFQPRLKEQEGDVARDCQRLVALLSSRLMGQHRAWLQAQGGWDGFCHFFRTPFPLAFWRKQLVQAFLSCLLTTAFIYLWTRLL
Assay: Bcl-B inhibitors displacing Bim peptide, SAR follow-up, biochemical, fluorescence polarization, GST-Bcl-B, FITC-Bim (AID 588575)
Activity calls are given as the source filed them.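 How the source made its calls: active means IC50 at or below 20 µM; inactive means the rest.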
Write down one outcome, taken from true (1) (active), false (0) (inactive)

COc1ccc2c(c1)-c1c(c(=O)n(Cc3ccc(F)cc3)c3nncn13)C(C)(C)C2: false (0)
O=c1[nH]c(CN2CCOCC2)nc2c1C1(CCCC1)Cc1ccccc1-2: false (0)
C=C(C)Cn1c(=O)c2c(n3cnnc13)-c1ccccc1CC21CCCC1: false (0)
COc1ccc2c(c1)-c1c(c(=O)n(Cc3ccc(Cl)cc3)c3nnnn13)C1(CCCC1)C2: false (0)
CC1(C)Cc2ccccc2-c2c1c(=O)n(Cc1ccccc1)c1nnnn21: false (0)

Any idea what this test logged for `Cn1c(=S)[nH]c2c(c1=O)C1(CCCCC1)Cc1ccccc1-2` ? false (0)

Any idea what this test logged for `Cc1ccc2c(c1)-c1c(c(=O)n(Cc3ccccc3)c3nnnn13)C1(CCCCC1)C2` ? true (1)

Any idea what this test logged for `O=c1c2c(n3cnnc3n1Cc1ccccc1)-c1ccccc1CC21CCCCC1` ? false (0)

Any idea what this test logged for O=C1CCCC2=C1C(c1cc(Br)ccc1F)n1ncnc1N2 (stereo not given) ? false (0)

Any idea what this test logged for `COc1ccc(Cn2c(=O)c3c(n4nnnc24)-c2ccccc2CC32CCCC2)cc1` ? true (1)
